# credit: paper PMC6144582

# targetEntity: human α-Syn fibrils (Homo sapiens)
# Construct: Human full-length α-Syn (NM_000345) was cloned; made in house; host or cells: Escherichia coli BL21 (D3)
# testDescription: Competition binding against 5 nM [3H]BF-227 on α-Syn fibrils
# conditionNotes: 5 nM [3H]BF-227, Cheng-Prusoff; geometric mean (low; high errors of the geometric mean)
# Description: Human full-length α-Syn (NM_000345) was cloned into the ampicillin-resistant Escherichia coli expression vector PET7-7 and transformed into BL21 (D3) strains for expression. […] After each centrifugation step, the supernatant was removed and the concentration of α-Syn in the supernatant was calculated from absorbance at 280 nm. […] Results are expressed as inhibition constants (Ki, nM) corrected for ligand occupancy.[7] […]
pKi: −log10 of the molar value.
recordedMetric: pKi

(1) CNc1ccc(-c2cc3cc(O)ccc3o2)c(F)n1 [Flutafuranol (NAV 4694), reference compound]
(2) Fc1ccc2nc(/C=C/c3cncs3)oc2c1 [Compound 15]
Ask | Please tell me which of the two, 1 or 2 , has the higher reported pKi value. Write the label of whichever entry you select.
Reply | 1

(P) CN(C)c1ncc(C=Cc2nc3ccc(OCCF)cc3o2)s1 [Compound 1]
(Q) CNc1ccc(/C=C/c2ccc(OCCOCCOCCF)nc2)cc1 [Florbetapir (AV-45), reference compound]
Ask | Sorting ascending by pKi, which comes first: P or Q ? Record your answer as the label of the chosen record.
Reply | P

(a) CNc1ccc(-c2nc3ccc(O)cc3s2)cc1F [Flutemetamol, reference compound]
(b) CN(C)c1ncc(/C=C/c2nc3cc(I)ccc3o2)s1 [Compound 12]
Ask | Hey, between a and b which has a smaller measured pKi? Mark your selection by writing its label.
Reply | b
(b: 6.56, a: 7.32)

###

# targetEntity: human α-Syn fibrils (Homo sapiens, UniProt P37840)
# Construct: Human full-length α-Syn (NM_000345) was cloned; made in house; host or cells: Escherichia coli BL21 (D3)
# testDescription: Competition binding against 5 nM [3H]BF-227 on α-Syn fibrils
# conditionNotes: 5 nM [3H]BF-227, Cheng-Prusoff; geometric mean (low; high errors of the geometric mean)
pKi: −log10 of the molar value.
recordedMetric: pKi

In the examples that follow, each entry is paired with its recorded pKi.
>  <compound>
CN(C)c1ncc(/C=C/c2nc3ccc(OCCCCF)cc3o2)s1

>  <reportedMeasurement>
6.42

$$$$
>  <compound>
Fc1ccc2oc(/C=C/c3ccccc3)nc2c1

>  <reportedMeasurement>
6.62

$$$$
>  <compound>
CN(C)c1ncc(/C=C/c2nc3ccc(OCCCCCF)cc3o2)s1

>  <reportedMeasurement>
6.53

$$$$
>  <compound>
CN(C)c1ncc(/C=C/c2nc3ccc(OCCCCCCCF)cc3o2)s1

>  <reportedMeasurement>
6.67

$$$$
>  <compound>
CN(C)c1ncc(/C=C/c2nc3ccc(OCCOCCF)cc3o2)s1

>  <reportedMeasurement>
7.08

$$$$
>  <compound>
CN(C)c1ncc(/C=C/c2nc3ccc(OCCCF)cc3o2)s1

>  <reportedMeasurement>
6.80

$$$$

(P) Fc1ccc2nc(/C=C/c3ccccc3)oc2c1
(Q) CNc1ccc(-c2nc3ccc(O)cc3s2)cc1 [PiB, reference compound]
Ask | Of P and Q , which one carries the higher reported pKi? Selection: enter the item's label.
Reply | Q
(Q: 7.26, P: 6.48)
